The entries below are paired with their reported pEC50.
Target: T1, full length human SIRPα v1 stably expressed on CHOK1 or 293F cells (human, UniProt P78324 31-504)
T1 construct: whole, on cells; also called CHOK1-human SIRPα v1; CHOK1-hSIRPα v1
T1 sequence (P78324 31-504): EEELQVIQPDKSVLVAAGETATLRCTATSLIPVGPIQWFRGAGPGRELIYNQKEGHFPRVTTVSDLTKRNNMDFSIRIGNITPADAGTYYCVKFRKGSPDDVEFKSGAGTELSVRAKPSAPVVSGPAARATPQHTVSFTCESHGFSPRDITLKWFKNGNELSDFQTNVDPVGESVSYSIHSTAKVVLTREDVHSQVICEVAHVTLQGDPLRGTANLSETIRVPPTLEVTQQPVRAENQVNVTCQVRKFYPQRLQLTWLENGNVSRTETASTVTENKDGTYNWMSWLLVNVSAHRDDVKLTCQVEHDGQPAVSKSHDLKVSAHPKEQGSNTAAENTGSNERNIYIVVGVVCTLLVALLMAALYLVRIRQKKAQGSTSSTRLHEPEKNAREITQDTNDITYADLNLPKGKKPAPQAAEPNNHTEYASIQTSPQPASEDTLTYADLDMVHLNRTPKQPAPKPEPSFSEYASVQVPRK
Assay: FACS, CHOK1-human SIRPα v1 cells
When answering, recall that pEC50 equals minus log10 of the concentration in mol/L, and write that number alone.

The cases that follow already have their pEC50 on record.
025 (antibody, V domains shown, Mouse monoclonal hybridoma antibody; also called antibody 025; hybridoma antibody 025) VH: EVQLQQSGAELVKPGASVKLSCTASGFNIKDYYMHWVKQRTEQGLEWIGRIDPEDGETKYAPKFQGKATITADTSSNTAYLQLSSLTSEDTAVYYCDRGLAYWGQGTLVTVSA VL: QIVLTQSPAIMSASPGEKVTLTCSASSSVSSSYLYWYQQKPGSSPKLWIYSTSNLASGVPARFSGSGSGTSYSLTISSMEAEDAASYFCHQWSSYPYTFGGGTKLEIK = 9.05
059 (antibody, V domains shown, Mouse monoclonal hybridoma antibody; also called antibody 059; hybridoma antibody 059) VH: QVQLQQSGPELVKPGASVKMSCKASGYTFSEYVLSWVKQRTGQGLEWIGEIYPGTITTYYNEKFKGKATLTADKSSNTAYIQLTSLTSEDSAVYFCGRFYDYDGGWFAYWGQGTLLTVSA VL: ENVLTQSPEKMAVSLGQKVTMTCSASSSVSSSDLHWYQQKSGASPKPLIHGTSNLASGVPARFSGSGSGTSYSLTISSVEAEDAATYYCQQWSGYPWTFGGGTNLEIK = 10.00
HEFLB (antibody, V domains shown) VH: EVQLVQSGAEVKKPGESLRISCKASGYSFTSYWVHWVRQMPGKGLEWMGNIDPSDSDTHYSPSFQGHVTLSVDKSISTAYLQLSSLKASDTAMYYCVRGGTGTLAYFAYWGQGTLVTVSS VL: DVVMTQSPLSLPVTLGQPASISCRSSQSLVHSYGNTYLYWFQQRPGQSPRLLIYRVSNRFSGVPDRFSGSGSGTDFTLKISRVEAEDVGVYYCFQGTHVPYTFGGGTKVEIK = 7.95

// next entry
Lab book: pEC50 of 005 (antibody, V domains shown, Mouse monoclonal hybridoma antibody purified on Protein A; also called antibody 005; hybridoma antibody 005) VH: EVKLVESGGGLVQPGGSLSLSCAASGFTFTDYYMSWVRQPPGKALEWLGFIKNEANGYTTESSASVKGRFTISRDNSQSILYLQMNALRAEDSATYYCARYDYYGSNYNWYFDAWGTGTTVTVSS VL: DIVMTQSQKFMSPSVGDRVSITCKASQNVRTAVAWYQQKPGQSPKVLIHLASKRHTGVPDRFTGSGSGTDFTLTISNVQSEDLADYFCLQHWIHPLTFGAGTKLELK noted as 8.74
